- test-name: in vitro
- run-conditions: human
Recorded CC50 values for a group of molecules are listed next.
metric: CC50 (µM)

{"molecule": "CC(C)N[C@H]1C[C@@H](C(=O)CN2CCN(c3cccc(C(F)(F)F)c3)CC2)N(Cc2ccccc2)C1 [Compound S33]", "display-unit": "µM", "value-reported": 17.5}
{"molecule": "CCOc1ccc([C@@H](O)Cn2c(=N)n(CCN3CCCCC3)c3ccccc32)cc1 [Compound S03]", "display-unit": "µM", "value-reported": 57.6}
{"molecule": "COc1ccc(OC)c(CN2CCC[C@@H](c3ccnc(SCCN4CCCC4)n3)C2)c1 [Compound S36]", "display-unit": "µM", "value-reported": 16.5}
{"molecule": "Cc1ccc(C(=O)N/C(=C/c2ccc(-c3ccc(Br)cc3)o2)C(=O)NCCCN(C)C)cc1 [Compound I01]", "display-unit": "µM", "value-reported": 9.72}
{"molecule": "CN(Cc1cccc(OCCN2CCN(S(=O)(=O)C3CCCCC3Cl)CC2)c1)CC1CCC(=O)N1 (stereo not shown) [Compound I53]", "display-unit": "µM", "value-reported": 47.5}
{"molecule": "CNC1CCN(c2nc3cc(OC)ccc3cc2CNCCc2ccc(OC)cc2)CC1 [Compound S49]", "display-unit": "µM", "value-reported": 22.4}
{"molecule": "COc1ccc(CNCc2cc(F)cc(F)c2)cc1OC[C@H](O)CN1CCN(C)CC1 [Compound S29]", "display-unit": "µM", "value-reported": 75.1}
{"molecule": "CN(C)[C@@H]1CCN(CC(c2ccccc2)c2ccccc2)C[C@@H]1CCC(=O)NCc1ccc2c(c1)OCO2 [Compound S31]", "display-unit": "µM", "value-reported": 26.7}
{"molecule": "CCN1CCC[C@@H]1CN(CC1CCN(COC)CC1)C(=O)CCc1ccc(F)cc1 [Compound S42]", "display-unit": "µM", "value-reported": 124}
{"molecule": "CN1CCCC(CNC(=O)c2cc(NCc3ccccc3F)cc(S(=O)(=O)CNC(C)(C)C)c2)C1 (stereo not shown) [Compound S58]", "display-unit": "µM", "value-reported": 105}
